experiment: Proxy for plastic degradation [UPLC/UHPLC]; conditions: pH 9; 60 °C
OBSERVATION_TYPE: Proxy for plastic degradation (µM)
State the answer as a number, implicitly in µM.

- PROTEIN: "unnamed (protein) MNFPRASRLMQAAVLGGLMAVSAAATAQTNPYARGPNPTAASLEASAGPFTVRSFTVSRPSGYGAGTVYYPTNAGGTVGAIAIVPGYTARQSSINWWGPRLASHGFVVITIDTNSTLDQPSSRSSQQMAALRQVASLNGTSSSPIYGKVDTARMGVMGWSMGGGGSLISAANNPSLKAAAPQAPWNSSTNFSSVTVPTLIFACENDSIAPVNSHALPFYNSMSRNAKQFLEINGGSHSCANSGNSNQALIGKKGVAWMKRFMDNDTRYSTFACQNPNSTRVSDFRTANCS"
  UNITS_OF_MEASURE: "µM"
  Proxy for plastic degradation: 17.4
- PROTEIN: "unnamed (protein) MSHRFRLAAAVCVAAAILVPATPAAAADPWDAPGPYATAVQIGAVNTLYYPRDIASSPRRHPVIVWGNGTGAAPLVYRDLLLYWASHGFIVSAANTPASNLGISMRLGIDALAAADADPGSIFRGKVDLAHIGASGHSQGGAAAIVVGADPRIDAILPIQPGPLADIDDVHVPALLLAGQHDSIVFPFLVKAFYNDATHIPAIYAEVRGADHFTVVGDPGPFAAPTTAWFRFQLMGDTAARAEFYGPSCGICTDTRTWSDVRRNALVP"
  UNITS_OF_MEASURE: "µM"
  Proxy for plastic degradation: 14.1
- PROTEIN: "unnamed (protein) MKTNRRTLMLTGIAMTIGTAGRAAQATPEFKPQPGPLSIKSAAAISFRVEDQAKDLQIRVTYPDGPGPWPAIIFSHGAMSSKDFYNRVADHWATHGYATILPTHLDSESLGYSFKNPLPREKVFFGRIGDMQFILNHLDEIAGKAGIAGKIEKTKLAVAGHSFGGWTSLILAGLPVKMPDGSLKSFADSRIKALVSYNGIGPMDEIPDAAWAKVAIPVFAASGTNDPGATGSGPVHPWRWRIGAYDYAGSKEKYAVSITMGDHYYGGLICREGAGGKPDPEGLSFVNGSSTAFMDAYLKDDKSAKKFLRTADLRPLTNDRAFLERS"
  UNITS_OF_MEASURE: "µM"
  Proxy for plastic degradation: 17.2

Now consider the entry below.
# Proxy for plastic degradation lookup, item unnamed (protein) MQDNSDGRYRPEGRTFARGAANLFDDRLFEARTYVTGTDVAEFASATIFYPLTLSFDLPNGVVVMSPGYTGTPESYDWWGPMLASVGIITAIIETNTPEDNLEQRKNALIAGIELIKRENANSASPINNKVDESQIAIMGHSLGGGASLRAAEELEGDIKAVIPLTPYCCELGQSFEGDLKGVSTPTLIIAAADDTIAPPETHSRLLYDEINSSTNKVYLEFAEGAHGLPTNQGSEFQTQGTYVYAFLKANFTNDSKYSDFIGGDGEDSFSSYETN
16.1

Cited source for all entries: the PETadex activity labels (doi:10.1038/s41467-025-61599-z)
